test system: SF-268 CNS; assay: NCI tumour cell line growth inhibition, 48 h; in the data active means GI50 below about 0.43 µM; inactive means the rest
Thanks in advance; please answer with one of these: active, inactive

Here's what some known entries look like.
[[record]]
compound = "Cc1ccc(C(=O)Nc2ccc(CN3CCN(C)CC3)c(C(F)(F)F)c2)cc1C#Cc1cnc(N)c2ccc(F)cc12"
assigned_category = "active"

[[record]]
compound = "Nc1cc(N)c2nc(-c3ccccc3)c(Oc3ccc(F)cc3)nc2c1"
assigned_category = "inactive"

[[record]]
compound = "NS(=O)(=O)c1ccc(N2Cc3cc(Cl)ccc3OC3=C2C(=O)N(CC2CCCCC2)C3=O)cc1"
assigned_category = "inactive"

[[record]]
compound = "Clc1ccc([O][In]([O]c2ccc(Cl)cn2)[O]c2ccc(Cl)cn2)nc1"
assigned_category = "inactive"


# ---- query compound ----
(Q) Lab log entry: COc1ccc(-n2nnc3c(sc4ccccc43)c2=O)cc1 — outcome as called in the assay?
(A) inactive

* * *

tested on: TK-10 renal; assay: NCI tumour cell line growth inhibition, 48 h
measurement.name: TGI (µM)
Give the quantity in µM, number only.

Solved entries (count: 2):
[[record]]
molecule = "CNC(=O)Nc1ccc(-c2nc(N3CCOCC3)nc3c2cnn3C2CCOCC2)cc1"
assayed_target = "TK-10 renal"
assay_result = 1.47

[[record]]
molecule = "O=C(Nc1ccc(OC(F)(F)F)cc1)c1sccc1NCc1ccnc2ccccc12"
assayed_target = "TK-10 renal"
assay_result = 98.6


Now examine the next entry.
(Q) Tell us which TGI value is on record for O=C(c1ccccc1)c1c(CC(O)c2cccnc2)n(C(=O)c2ccccc2)c2ccccc12 (stereo unspecified)
(A) 86.3

* * *

test system: MDA-N; experiment: NCI tumour cell line growth inhibition, 48 h
Overview of reported TGI across a group of compounds:
Give the quantity in µM, number only.

[[record]]
compound = "C=C1C[C@@H]2CC[C@@]34C[C@H]5O[C@H]6[C@@H](O3)[C@H]3O[C@H](CC[C@@H]3O[C@H]6[C@H]5O4)CC(=O)C[C@@H]3[C@@H](OC)[C@@H](C[C@H](O)CN)O[C@H]3C[C@H]3O[C@@H](CC[C@@H]1O2)C[C@@H](C)C3=C"
assayed_target = "MDA-N"
assay_result = 0.000354


(Q) Tell us which TGI value is on record for C=C1CC(COc2ccc3c(C)c(C)c(=O)oc3c2C)(c2ccccc2)OC1=O (centres undefined)
(A) 4.4

* * *

tested on: UACC-62 melanoma; assay: NCI tumour cell line growth inhibition, 48 h
Overview of reported TGI across a group of molecules:

Solved entries (count: 8):
[[record]]
molecule = "O=C1N/N=C\\c2ccc(cc2)OCc2cccc(n2)COc2ccc(cc2)/C=N\\NC1=O"
assay_result = "> 25 µM"

[[record]]
molecule = "Cc1ccc(C(=O)Cc2nc3c([nH]c2=O)c(C)nn3-c2ccccc2)c(C)c1"
assay_result = "> 10 µM"

[[record]]
molecule = "Fc1cccc(COc2ccc(Nc3ncnc4sc(-c5ccco5)cc34)cc2Cl)c1"
assay_result = "> 25 µM"

[[record]]
molecule = "COc1cc(-c2oc3ccccc3c(=O)c2O)cc(OC)c1OC"
assay_result = "> 100 µM"

[[record]]
molecule = "CC[C@H](C)[C@H](NC(=O)c1cnccn1)C(=O)N(C)[C@H](C[C@@H](OC(C)=O)c1nc(C(=O)N[C@@H](Cc2ccccc2)C[C@H](C)C(=O)OC)cs1)C(C)C"
assay_result = "> 33.3 µM"

[[record]]
molecule = "COC(=O)c1ccc2c(c1)C(NC(C)=O)CCc1cc(OC)c(OC)c(OC)c1-2 (centres undefined)"
assay_result = "> 100 µM"

[[record]]
molecule = "COc1ccc(C(=O)N2c3ccccc3Sc3ccccc32)c(F)c1"
assay_result = "> 100 µM"

[[record]]
molecule = "Cc1cc(C)c2c(c1)CN1CN2Cc2cc(C)cc(C)c21"
assay_result = "35.9 µM"


Now examine the next entry.
(Q) Provide UACC-62 melanoma TGI reading for CCCCCCCCCCCCNC(=O)CCC(NC(=O)c1ccc(N(C)Cc2cnc3nc(N)nc(N)c3n2)cc1)C(=O)NCCCCCCCCCCCC (centres undefined) .
(A) > 100 µM

Ref: PubChem BioAssay (NCI)
